Known Avg. POC of a selection of compounds
# TESTED_TARGET: VRK2 (Homo sapiens (Human))
# Sequence (Q86Y07 whole entry): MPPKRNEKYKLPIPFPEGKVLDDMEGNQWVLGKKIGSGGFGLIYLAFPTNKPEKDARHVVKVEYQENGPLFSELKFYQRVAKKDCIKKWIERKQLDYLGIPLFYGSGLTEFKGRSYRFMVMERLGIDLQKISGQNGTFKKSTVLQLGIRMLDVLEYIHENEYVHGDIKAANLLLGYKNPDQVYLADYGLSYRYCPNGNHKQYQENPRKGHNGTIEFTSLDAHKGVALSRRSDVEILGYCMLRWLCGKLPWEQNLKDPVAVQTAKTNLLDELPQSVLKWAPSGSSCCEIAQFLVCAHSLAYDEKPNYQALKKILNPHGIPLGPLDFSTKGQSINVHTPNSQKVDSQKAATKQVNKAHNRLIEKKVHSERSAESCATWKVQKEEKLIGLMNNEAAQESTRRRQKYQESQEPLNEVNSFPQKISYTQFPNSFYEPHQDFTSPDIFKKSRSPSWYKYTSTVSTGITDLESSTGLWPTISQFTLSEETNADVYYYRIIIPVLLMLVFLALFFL
# PROTOCOL_SUMMARY: KinaseProfiler off-target kinase profiling
# Format: biochemical
# EXPERIMENTAL_CONDITIONS: 10 μM, ATP near Km
Expressed in POC, but write only the number.

Some compounds with known Avg. POC results, for comparison:
>>> recorded_result("COCc1ccc2c(c1)C(NC(=O)Nc1c(C)c(-c3cnn(C)c3)nn1-c1ccccc1)COC2 (stereo not shown)")
100.5
>>> recorded_result("Cc1c(-c2cnn(C)c2)nn(-c2ccccc2)c1NC(=O)N[C@H]1CCCc2ccccc21")
109
>>> recorded_result("Cc1c(-c2cnn(C)c2)nn(-c2ccccc2)c1NC(=O)NC1CCOc2cc(F)ccc21 (stereo not shown)")
95

Recall the recorded Avg. POC for Cc1c(-c2ccc(=O)n(C)c2)nn(-c2ccccc2)c1NC(=O)NC1CN(CC(F)(F)F)Cc2ccccc21 (stereo not shown) with VRK2 (Homo sapiens (Human)) and state it.
98
